- measurement target: hAChE (Homo sapiens)
- Construct: purchased Sigma C1682
- Sequence (P22303 32-614): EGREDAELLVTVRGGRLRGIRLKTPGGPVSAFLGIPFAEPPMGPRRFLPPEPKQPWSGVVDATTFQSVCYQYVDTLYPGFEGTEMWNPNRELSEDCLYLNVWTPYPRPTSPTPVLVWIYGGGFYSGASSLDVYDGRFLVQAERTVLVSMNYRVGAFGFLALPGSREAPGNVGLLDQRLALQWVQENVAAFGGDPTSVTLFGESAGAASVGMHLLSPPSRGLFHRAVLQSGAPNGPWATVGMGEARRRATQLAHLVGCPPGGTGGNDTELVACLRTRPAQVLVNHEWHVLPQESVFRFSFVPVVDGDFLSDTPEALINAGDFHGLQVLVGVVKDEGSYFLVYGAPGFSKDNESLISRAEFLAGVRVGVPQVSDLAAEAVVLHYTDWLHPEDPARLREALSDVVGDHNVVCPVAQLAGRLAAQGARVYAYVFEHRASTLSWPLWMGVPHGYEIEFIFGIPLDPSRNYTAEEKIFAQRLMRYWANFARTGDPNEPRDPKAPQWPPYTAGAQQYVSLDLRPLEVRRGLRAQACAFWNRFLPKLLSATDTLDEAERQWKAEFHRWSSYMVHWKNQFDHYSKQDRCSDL
- experiment summary: Ellman AChE inhibition assay, recombinant hAChE
- Assay type: biochemical
Labelling: IC50 reported below 3 µM becomes met; at or above becomes not met.

# example entries with known answers
>>> category("CNC(=O)Oc1ccccc1C(C)(C)C [Compound 23b, 2-tert-butylphenyl methylcarbamate]")
"not met"
>>> category("CNC(=O)Oc1ccccc1SCc1ccccc1 [Compound 19b, 2-(benzylthio)phenyl-N-methylcarbamate]")
"not met"
>>> category("CNC(=O)Oc1ccccc1SC(C)C [Compound 5b]")
"met"
>>> category("CNC(=O)Oc1ccccc1OCC1CCCCC1 [Compound 10b]")
"not met"
>>> category("CCC(CC)CSc1ccccc1OC(=O)NC [Compound 1b]")
"not met"
>>> category("C=C(Cl)CSc1ccccc1OC(=O)NC [Compound 14b]")
"not met"

Here's an entry: C=C(Br)COc1ccccc1OC(=O)NC [Compound 21b] . Is its IC50 below 3 µM?
not met

Thanks! And CNC(=O)Oc1cccc(-c2cn(Cc3ccccc3)nn2)c1 [Compound 13a] ?
not met

CNC(=O)Oc1ccccc1OCC1CCCC1 [Compound 12b] ?
not met

Then what about the compound CC(C)(C)c1cccc(OC(=O)NCc2cn(Cc3ccccc3)nn2)c1 [Compound 1f] ?
not met

Record: CNC(=O)Oc1ccccc1SCC=C(C)C [Compound 18b]
met

Now the compound C/C=C/CSc1ccccc1OC(=O)NC [Compound 17b]
met

Can you check CNC(=O)Oc1cccc(-c2ccccc2)c1 [Compound 6a] next?
not met

Input C#CCNC(=O)Oc1cccc(C(C)(C)C)c1 [Compound 1e, N-propargyl 3-t-butylphenyl carbamate]
met

# repeat for CCCCCCNC(=O)Oc1cccc(C(C)(C)C)c1 [Compound 1c]
met

Try CNC(=O)Oc1ccccc1OCC(C)C [Compound 13b, 2-isobutoxyphenyl-N-methylcarbamate] next.
not met

Follow-up entry: CCc1cccc(OC(=O)NC)c1 [Compound 5a]
met

Check CNC(=O)Oc1cc(C(C)(C)C)cc(C(C)(C)C)c1 [Compound 11a] too.
not met

Another compound: CCC(CC)COc1ccccc1OC(=O)NC [Compound 2b]
not met

Would you mind doing C=C(C)CSc1ccccc1OC(=O)NCCCCCC [Compound 8d] as well?
not met

Request: CNC(=O)Oc1ccccc1SCC(C)C [Compound 6b, 2-(isobutylthio)phenyl-N-methylcarbamate]
not met

What would you report for CNC(=O)Oc1cc(C)cc(C)c1 [Compound 10a] ?
not met

Follow-up item: C=C(Br)CSc1ccccc1OC(=O)NC [Compound 15b]
met

Follow-up entry: C=C(C)CSc1ccccc1OC(=O)NCC [Compound 8c]
not met

Then this compound: CNC(=O)Oc1cccc([Si](C)(C)C)c1 [Compound 2a]
met

// next record CCC(C)CSc1ccccc1OC(=O)NC (stereo not shown) [Compound 4b]
not met

Taken from patent US8618162B2.
